System: HCT-116 colon
Test: NCI-60 one-dose screen, 48 h (100 = growth as untreated, 0 = no growth, -100 = all killed)
Details: 10 µM unless noted
Compounds without any hit were thinned out: in the full panel of roughly 83,000, 20% have a hit.
assay metric: growth (%)
Report the figure in % without appending any unit label.

Worked cases, growth given:
COc1ccc(-n2cc(-c3cc(OC)c(OC)c(OC)c3)n(C(C)=O)c2=O)cc1	94
O=C(Nc1ccc2ncnc(Nc3ccc(Oc4cccc(F)c4)c(Cl)c3)c2c1)c1ccc(CN2CCOCC2)cc1	13.7
CCOc1cc(CNc2ccc(N3CCOCC3)c(C(=O)O)c2)ccc1OC	119

Exam item: Report growth from HCT-116 colon testing of COc1ccc2c(/C=C3/C(=O)NC(=S)NC3C)cc(=O)oc2c1 (configuration not stated)
Marked response: 95.6

Exam item: Report growth from HCT-116 colon testing of COc1ccccc1/C=C1\Oc2cc(OCCCN3CCCC3)ccc2C1=O
Marked response: 50.9

Exam item: Report growth from HCT-116 colon testing of Fc1ccccc1CSc1ncnc2nc[nH]c12
Marked response: 97.6

Exam item: Report growth from HCT-116 colon testing of COc1ccc(-c2nc(N/N=C/c3c[nH]c4ccccc34)nc(N3CCOCC3)c2C#N)cc1
Marked response: 59.8
